// pIC50 lookup, one value per entry
assay-target: human platelet PDE5 (Homo sapiens)
Construct: utilizes PDE5 isolated from human platelets; from tissue; host or cells: human platelets
assay-method-text: Method A: PDE-5 Inhibition Scintillation Proximity Assay (SPA) - Human Platelet
Format: biochemical
experimental-context: cGMP substrate 500 nM, PDE5 isolated from human platelets
Structures can show the parent of a compound that is named as a salt.
pIC50 here is simply -log10 of the concentration when that concentration is written in mol/L.

compound: CCNc1nc(Nc2cc(C)ccn2)c2c(n1)c(CNS(C)(=O)=O)nn2CCOCC
pIC50: 8.96
--
compound: CCOCCn1nc(CN2CCNCC2)c2nc(N(C)C)nc(Nc3cc(C)ccn3)c21 [Example 40, hydrochloride]
pIC50: 8.24

**Q:** For CCOCCn1nc(CNC(=O)CC)c2nc(N(C)C)nc(Nc3cc(C)ccn3)c21 , what is its reported pIC50?
**A:** 9.48
